// reported IC50 for each item listed
system-tested: biotinylated human IL-17 (binding to IL17R/Fc) (Homo sapiens, UniProt Q16552)
Construct: 177-IR (IL17R/Fc)
Sequence (Q16552 20-155 limits assumed): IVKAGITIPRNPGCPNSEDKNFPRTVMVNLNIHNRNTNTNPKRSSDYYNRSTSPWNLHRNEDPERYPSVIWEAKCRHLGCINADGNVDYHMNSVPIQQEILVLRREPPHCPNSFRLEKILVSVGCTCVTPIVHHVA
measurement-notes: IL-17 competition ELISA II (captured IL17R/Fc, biotinylated IL-17)

Input: Give biotinylated human IL-17 (binding to IL17R/Fc) (Homo sapiens, UniProt Q16552) IC50 for the following molecule: O=C(Cc1ccc(F)cc1)N[C@@H](Cc1ccccc1Cl)C(=O)Nc1ccc(C[C@H]2NC(=O)CC3(CCCC3)CC(=O)OCCCC/C=C/CNC2=O)cc1 [Compound 500]
Output: < 0.1 µM

Input: Give biotinylated human IL-17 (binding to IL17R/Fc) (Homo sapiens, UniProt Q16552) IC50 for the following molecule: C[C@H]1NC(=O)[C@@H](Cc2ccc(NC(=O)[C@H](Cc3ccccc3Cl)NC(=O)C(F)(F)c3ccccc3)cc2)NC(=O)CC2(CCCC2)CC(=O)NCCN2CCN(CC2)C1=O [Compound 533]
Output: 0.1 to 1 µM

Input: Give biotinylated human IL-17 (binding to IL17R/Fc) (Homo sapiens, UniProt Q16552) IC50 for the following molecule: C[C@H]1NC(=O)[C@@H](Cc2ccc(NC(=O)[C@@H](Nc3nc4ccccc4o3)C3CCCCC3)cc2)NC(=O)CC2(CCCC2)CC(=O)N(C)CCCCCN(C)C1=O [Compound 665]
Output: < 0.1 µM

Input: Give biotinylated human IL-17 (binding to IL17R/Fc) (Homo sapiens, UniProt Q16552) IC50 for the following molecule: O=C1CNC(=O)[C@@H](Cc2ccc(NC(=O)[C@@H](NC(=O)c3ccccc3)C3CCCCC3)cc2)NC(=O)CC2(CCCC2)CC(=O)NCCCCCN1 [Compound 379]
Output: < 0.1 µM

Input: Give biotinylated human IL-17 (binding to IL17R/Fc) (Homo sapiens, UniProt Q16552) IC50 for the following molecule: O=C1CC2(CCCC2)CC(=O)N[C@H](Cc2ccc(NC(=O)[C@@H](NC(=O)Cc3ccc(CO)cc3)C3CCCCC3)cc2)C(=O)NCCCCCCCN1 [Compound 357]
Output: < 0.1 µM

----------
system-tested: recombinant human IL17a (binding to its receptor IL17R) (Homo sapiens)
Construct: 177-IR (IL17R/Fc)
measurement-notes: IL-17 competition ELISA I (IL17a coated, IL17R/Fc binding)
recorded-metric: IC50

| molecular-string | IC50 |
| --- | --- |
| CN1CC(=O)NCCCCCNC(=O)CC2(CCCC2)CC(=O)N[C@H](Cc2ccc(NC(=O)[C@H](Cc3ccccc3Cl)NC(=O)Cc3ccccc3)cc2)C1=O | 1000 to 10000 nM |

Input: Answer with the recorded IC50 for the molecule listed here: O=C1CNC(=O)[C@@H](Cc2ccc(NC(=O)[C@H](CC3CCCCC3)NC(=O)Cc3ccccc3)cc2)NC(=O)CC2(CCCC2)CC(=O)NCCCCCN1
Output: 100 to 1000 nM

Input: Answer with the recorded IC50 for the molecule listed here: COCC(=O)N[C@@H](Cc1ccccc1Cl)C(=O)Nc1ccc(C[C@H]2NC(=O)CC3(CCCC3)CC(=O)NCCCCCNC(=O)CNC2=O)cc1
Output: 100 to 1000 nM
